# EXPERIMENTAL_TARGET: GABA-A receptor; agonist GABA site
# PROTOCOL_DESCRIPTION: Agonist activity at human alpha1beta2gamma2L GABAA receptor expressed in Xenopus oocytes assessed as potentiation of channel current response by two-electrode voltage clamp electrophysiology assay
# Assay type: functional, cell-based
# CONDITION_DETAILS: oocyte
Reported EC50 values follow for various compounds

{"STRUCTURE": "CC(C)c1cccc(C(C)C)c1O", "EXPERIMENTAL_TARGET": "GABA-A receptor; agonist GABA site", "RESULT": "50 µM"}

Now consider a different compound.
Fill in: EC50 of "CC(C)c1cc(CCCC2(C)N=N2)cc(C(C)C)c1O" is ___
15 µM
